- assay.info: protein stability index of a GFP-peptide fusion (yeast GPS) (PSI 1-4); higher = more stable; sorted into four equal gates, so the index is relative within each strain
- condition.summary: ubr1∆
Rule: protein stability index under 3 gives false (0), otherwise true (1).

Recorded results for 6 sequences are shown here.
biosequence	discrete.label
ESWFKALAGSEINWRHA [FAS1]	false (0)
REIDALKKQLHVSHEAM [YIL149C/MLP2]	false (0)
LLAKAVANQTSATFLRI [RPT2]	false (0)
YTKPYPNFEASFVHGVV [SMC2]	false (0)
NGDKMPLKFKLGPLSYQ [YJR042W/NUP85]	true (1)
GKIDEAADILCELQVET [RPN5]	true (1)

stdin: Determine whether measured protein stability index meets or exceeds 3 for GSGVDSSKLQLTKKYSF [RRP42]
stdout: false (0)

stdin: hey, is protein stability index for this one >= 3? FVWLSSEENIGSGLLKL [SWI1]
stdout: true (1)

stdin: Does KPFGSAKSDETKQASSF [YLR335W/NUP2] have a reported protein stability index of at least 3?
stdout: false (0)

stdin: Hi team, for RGTLTKNLKHIDVTFTK [RPL9A] , is the recorded protein stability index at or above 3?
stdout: false (0)

stdin: Tell me whether protein stability index is at least 3 here: LEYEISKLKKETASFIP [YIL149C/MLP2]
stdout: false (0)

stdin: Please indicate if the recorded protein stability index for EIEIEGVMSLLQKSSKS [YAR002W/NUP60] meets or exceeds 3.
stdout: true (1)

* * *

- assay.info: protein stability index of a GFP-peptide fusion (yeast GPS) (PSI 1-4); higher = more stable; sorted into four equal gates, so the index is relative within each strain
- condition.summary: pdr5∆
Outcome: 1.0 for protein stability index of at least 3; 0.0 for anything lower.

biosequence	discrete.label
IGTNDLFQVESAPKISS [SIR4]	0.0

stdin: Is it the case that DGRVNRFYELEESLTVL [YJR042W/NUP85] has protein stability index reaching or exceeding 3?
stdout: 0.0

stdin: Is protein stability index at least 3? Consider KELELERKEREDFQKRQ [SWI1]
stdout: 1.0

stdin: Please indicate if the recorded protein stability index for NETKKRNFLETVELQVG [RPL1A] meets or exceeds 3.
stdout: 0.0

stdin: Say whether NTLILRGPRNSREAVRH [RPL18A] shows protein stability index of 3 or more.
stdout: 0.0

* * *

- assay.info: protein stability index of a GFP-peptide fusion (yeast GPS) (PSI 1-4); higher = more stable; sorted into four equal gates, so the index is relative within each strain
- condition.summary: ubr1∆
Decision: protein stability index compared against 3; not below it gives MET, below it gives NOT MET.

stdin: Form field: protein stability index at least 3? Entry: HLDNSKSVFSSAGLDSA [RPN1]
stdout: NOT MET

stdin: Does the sequence KLLKQPKFDVGALMALH [RPS1A] have recorded protein stability index that is 3 or more?
stdout: NOT MET

stdin: Does protein stability index meet or surpass 3 for SASTSATGISGSVSEET [ECM29] ?
stdout: MET

* * *

# Lookup of reported protein stability index keyed by entry
- assay.info: protein stability index of a GFP-peptide fusion (yeast GPS) (PSI 1-4); higher = more stable; sorted into four equal gates, so the index is relative within each strain
- condition.summary: ubr1∆
Answer with the value's number alone.

Use these answered entries as a reference point.
biosequence	protein stability index
TLKPTFSFTEPAQKDSS [YOR098C/NUP1]	2.53
DSTLILEQLAQHTTESD [RPB2]	2.43
TRINGLNSNNSIIGNKN [REC8]	2.98
PIGRDGKLAKPRQLHNT [RPB2]	2.84
NIVKLCFVHRYKDVSDL [IRR1]	2.89

stdin: Output protein stability index of SIHAHGSTDVGYYLSLG [PUP1]
stdout: 2.24

stdin: Provide protein stability index value for the following sequence: KKVSRRNARAARAAKIA [RPL13B]
stdout: 2.69

* * *

- assay.info: protein stability index of a GFP-peptide fusion (yeast GPS) (PSI 1-4); higher = more stable; sorted into four equal gates, so the index is relative within each strain
- condition.summary: ubr1∆
Label satisfied when protein stability index is at or above 3; anything below gets not satisfied.

# count of solved cases: 4
biosequence	discrete.label
KCIPKKGTVFQFEIPIS [POP4]	not satisfied
DGKGAVYSFDPVGSYER [PRE7]	satisfied
REKALNEEAEARRLKNR [RPL19A]	satisfied
LAKTKENYDAKIELEKK [YIL149C/MLP2]	satisfied

stdin: Is protein stability index for HELPRYGITHGLTNWAA [RPL5] at or above 3?
stdout: not satisfied

stdin: State whether the measured protein stability index reaches 3, counting equality as reaching it, for LYDLRASYAKIEIKISD [SNU114]
stdout: not satisfied

stdin: Textbook exercise: given the entry KKWPQFYAAVQKNYADP [SIN4] , state whether its protein stability index is greater than or equal to 3.
stdout: not satisfied

stdin: # bool: protein stability index of VGSVTYQVDEDVKSSLS [YJL039C/NUP192] >= 3
stdout: satisfied

stdin: // inclusive: protein stability index at least 3? input: ELFKGYLADDIDADSLE [RPL5]
stdout: satisfied

stdin: Quick check: does LEDIYTSAHEAIRADPA [RPL5] have protein stability index greater than or equal to 3?
stdout: satisfied

stdin: Could you verify whether the entry LTLKHRQNKVQHQRIVA [RPN10] shows protein stability index of no less than 3?
stdout: not satisfied

stdin: Check if protein stability index >= 3 (inclusive). Item: SFQKKSNDKVVEWINPS [ISW2]
stdout: satisfied

* * *

# protein stability index values compiled below
- assay.info: protein stability index of a GFP-peptide fusion (yeast GPS) (PSI 1-4); higher = more stable; sorted into four equal gates, so the index is relative within each strain
- condition.summary: san1∆

stdin: Return reported protein stability index. Input sequence: IGDVDGLIVNPVKVSGT [POP5]
stdout: 2.66

stdin: // Input: LKRISDGLSFGKGESVI [SIR3] . Output its protein stability index only.
stdout: 3.33

stdin: Using the record for KDKGVYVVTSDEHPKTL [SIR2] , state its measured protein stability index.
stdout: 3.25

stdin: Assign protein stability index to the following record: SKSEFAHRIMLTNILRM [FAS2]
stdout: 1.46

stdin: Dear colleague, please send me the reported protein stability index for LFGNKPTTTTGGLFGNS [YGR119C/NUP57] when you can.
stdout: 2.85

stdin: Name the recorded protein stability index of the item VANYSAMANAPGNNIPY [GAL11] in your answer.
stdout: 2.7

stdin: Specify protein stability index for CTQMTDEGLLNMVSLRG [GRR1] and stop.
stdout: 2.22

stdin: Read off the recorded protein stability index for TILQHLSEAWRCWKANI [PRP8]
stdout: 3.5

* * *

Reported protein stability index values for a set of sequences
- assay.info: protein stability index of a GFP-peptide fusion (yeast GPS) (PSI 1-4); higher = more stable; sorted into four equal gates, so the index is relative within each strain
- condition.summary: san1∆

stdin: For GFGILEDGMIIDVNLNF [RRP40] , write its protein stability index.
stdout: 3.19

stdin: Please indicate protein stability index recorded for LLAREVLRLRGALVDRT [RPS0A]
stdout: 1.78

stdin: Input KCSTRGLSTDHTTQIVN [YML103C/NUP188] , output reported protein stability index.
stdout: 2.79

* * *

- assay.info: protein stability index of a GFP-peptide fusion (yeast GPS) (PSI 1-4); higher = more stable; sorted into four equal gates, so the index is relative within each strain
- condition.summary: san1∆
assay.metric: protein stability index
Could you keep your reply to the number by itself?

stdin: For QMSDKHATVVPPEEFSN [SRB7] , write its protein stability index.
stdout: 2.71

stdin: Entry TFEIPQAHEIVIPSYSK [SWI3] needs its protein stability index filled in; supply it.
stdout: 2.39

stdin: Give the reported protein stability index for this sequence. KTRVGSVTAQVYKIALR [RPC82]
stdout: 1.5

stdin: State, in one line, measured protein stability index of IPDFRSSEGFYSKIKHL [SIR2]
stdout: 2.17

stdin: Tell me protein stability index reported for NLQREIDQAHVSEITKL [RPN14]
stdout: 2.75

stdin: Could you please provide reported protein stability index for ENLMVQRTCLMTVTFLI [YCS4] ? Thanks!
stdout: 2.16

stdin: Using the record for NPNPSSQRAQVVTMSVK [RPC37] , state its measured protein stability index.
stdout: 2.1

stdin: Determine from records and report protein stability index for AKRNLPHTTLVNECIAQ [CDC53]
stdout: 2.65

stdin: // fetch protein stability index given entry VTGFAEVGPWGSARTRW [FAS2]
stdout: 2.73

stdin: Specify measured protein stability index for IHGVLKNVDREVVSEAI [FAS2] .
stdout: 3.3

stdin: Report protein stability index, nothing else, for this sequence: FFPYYVHTIIAGLDEDG [PRE7]
stdout: 3.35

stdin: Give me measured protein stability index, please, for this sequence: SKALNSILESSMFLRID [RGR1]
stdout: 2.08

stdin: Provide measured protein stability index value, entry: VGSVTYQVDEDVKSSLS [YJL039C/NUP192]
stdout: 3.29

stdin: Supply measured protein stability index of ARDLLDDLEKTLDKKDS [RPN9] in your reply.
stdout: 3.15
